System: PPARa:RXRa (NR concentration 270 nM, RXRa partner concentration 90 nM)
PROCEDURE_SUMMARY: PBM binding z-score (relative to random genomic background probes); higher = stronger binding; sequences stand for … in GC…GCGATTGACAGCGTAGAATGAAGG
Give y when the value for PBM binding z-score is at least 4. Give n when it is less.

SEQUENCE_CODE | CLASS_LABEL
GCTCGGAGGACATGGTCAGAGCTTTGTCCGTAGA | n
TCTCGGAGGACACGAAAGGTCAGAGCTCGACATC | n
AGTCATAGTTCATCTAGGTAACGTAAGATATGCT | n
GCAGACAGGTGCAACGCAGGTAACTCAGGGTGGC | n
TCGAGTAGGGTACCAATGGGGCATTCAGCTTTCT | n

Decide: PBM binding z-score of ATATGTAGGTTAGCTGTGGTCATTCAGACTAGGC >= 4?
n

Similarly, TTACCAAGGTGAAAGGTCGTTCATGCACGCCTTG ?
y

Similarly, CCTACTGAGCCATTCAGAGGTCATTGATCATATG ?
n

Similarly, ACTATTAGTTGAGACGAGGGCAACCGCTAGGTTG ?
n

Similarly, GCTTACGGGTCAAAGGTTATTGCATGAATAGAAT ?
y

Similarly, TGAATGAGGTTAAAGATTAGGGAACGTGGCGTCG ?
n

Similarly, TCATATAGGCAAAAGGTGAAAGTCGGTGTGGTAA ?
y

Similarly, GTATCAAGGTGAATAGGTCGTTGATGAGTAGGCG ?
n

Similarly, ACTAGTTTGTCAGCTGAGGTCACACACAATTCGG ?
n

Similarly, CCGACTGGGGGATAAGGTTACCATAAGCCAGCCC ?
n

Similarly, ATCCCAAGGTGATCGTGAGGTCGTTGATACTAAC ?
n

Similarly, CCTAGCGGGCCAGGGTCACTCAAGCATTTCGCTT ?
n

Similarly, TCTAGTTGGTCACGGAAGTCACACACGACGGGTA ?
n

Similarly, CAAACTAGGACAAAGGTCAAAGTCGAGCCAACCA ?
y

----------
As shown below, each of these sequences has a reported PBM binding z-score value.
Test system: THRa homodimer (NR concentration 90 nM)
PROCEDURE_SUMMARY: PBM binding z-score (relative to random genomic background probes); higher = stronger binding; sequences stand for … in GC…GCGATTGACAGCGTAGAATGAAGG
Form: value (number only, do not type unit).

Previously resolved entries follow.
SEQUENCE_CODE | PBM binding z-score
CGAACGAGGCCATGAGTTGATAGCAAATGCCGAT | -0.151
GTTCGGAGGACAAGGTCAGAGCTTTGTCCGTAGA | 1.52
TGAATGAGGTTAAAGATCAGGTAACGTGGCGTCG | 1.42

Param item = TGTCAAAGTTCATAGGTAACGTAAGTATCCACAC ; retrieve measured PBM binding z-score.
-0.00989

Similarly, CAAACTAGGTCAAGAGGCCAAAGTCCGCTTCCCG ?
0.986

----------
Test system: PPARg:RXRa IVT, anti-PPARg (NR concentration 270 nM, RXRa partner concentration 90 nM)
PROCEDURE_SUMMARY: PBM binding z-score (relative to random genomic background probes); higher = stronger binding; sequences stand for … in GC…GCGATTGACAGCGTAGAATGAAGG
Give 1 (yes) when the value for PBM binding z-score is at least 3. Give 0 (no) when it is less.

Decide: PBM binding z-score of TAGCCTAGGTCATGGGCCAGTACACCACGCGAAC >= 3?
1 (yes)

Similarly, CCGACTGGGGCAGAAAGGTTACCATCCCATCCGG ?
0 (no)

Similarly, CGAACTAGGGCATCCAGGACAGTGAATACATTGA ?
1 (yes)

Similarly, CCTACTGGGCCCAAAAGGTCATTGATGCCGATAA ?
0 (no)

Similarly, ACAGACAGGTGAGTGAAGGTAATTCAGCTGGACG ?
0 (no)

Similarly, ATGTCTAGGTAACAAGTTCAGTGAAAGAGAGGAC ?
0 (no)

Similarly, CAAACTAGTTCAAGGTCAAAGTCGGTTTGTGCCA ?
1 (yes)

Similarly, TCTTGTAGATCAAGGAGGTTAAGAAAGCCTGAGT ?
0 (no)

Similarly, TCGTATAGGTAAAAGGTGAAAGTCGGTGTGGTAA ?
1 (yes)

Similarly, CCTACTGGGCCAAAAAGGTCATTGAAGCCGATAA ?
1 (yes)

Similarly, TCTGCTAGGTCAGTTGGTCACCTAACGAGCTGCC ?
1 (yes)

Where these numbers come from: the supplement of paper PMC6555819
